Target: T1, monkey LAG-3 (full length, on the cell surface) (monkey, UniProt P18627 24-525 (human entry))
T1 construct: also called HEK293-cLAG-3; monkey LAG-3 protein on the cell surface
T1 chain: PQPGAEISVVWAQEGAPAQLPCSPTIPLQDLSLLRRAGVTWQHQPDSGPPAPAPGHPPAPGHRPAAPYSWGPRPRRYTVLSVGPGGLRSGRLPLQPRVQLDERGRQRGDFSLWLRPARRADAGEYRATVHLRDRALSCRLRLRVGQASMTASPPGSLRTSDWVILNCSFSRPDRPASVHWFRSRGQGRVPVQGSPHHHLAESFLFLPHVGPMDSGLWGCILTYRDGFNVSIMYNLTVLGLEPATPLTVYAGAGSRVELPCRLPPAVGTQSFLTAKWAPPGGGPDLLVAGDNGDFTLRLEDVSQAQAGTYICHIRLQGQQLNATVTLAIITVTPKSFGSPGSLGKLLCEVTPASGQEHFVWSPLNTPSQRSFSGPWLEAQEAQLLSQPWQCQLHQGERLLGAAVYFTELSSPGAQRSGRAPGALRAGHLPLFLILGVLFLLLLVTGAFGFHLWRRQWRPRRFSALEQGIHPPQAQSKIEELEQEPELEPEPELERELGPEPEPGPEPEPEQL
Assay: FACS, HEK293-cLAG-3; 0.013 nM
Procedure: The pIRES plasmid with the monkey-derived full-length gene was transfected into the HEK293 cell line to construct a HEK293 stable cell line containing monkey LAG-3 (herein referred to as HEK293-cLAG-3 stable cell line). […] After counted, the cells were diluted with HBSS to 1-2×10⁶ cells per ml, added with 1% goat serum blocking solution, incubated on ice for 20-30 minutes, and then washed with HBSS for 2 times by centrifugation. […]
MEASURED_PROPERTY: Mean fluorescence intensity (MFI)
# number only, unit MFI dropped from output

What value of Mean fluorescence intensity has been reported for the following binder? 556F6B8 (mouse antibody purified from hybridoma) (antibody, V domains shown, also called mAb123-556F6B8) VH: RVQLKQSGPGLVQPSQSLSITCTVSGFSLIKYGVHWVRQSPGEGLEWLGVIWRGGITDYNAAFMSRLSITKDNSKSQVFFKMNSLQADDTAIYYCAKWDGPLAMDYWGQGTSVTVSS VL: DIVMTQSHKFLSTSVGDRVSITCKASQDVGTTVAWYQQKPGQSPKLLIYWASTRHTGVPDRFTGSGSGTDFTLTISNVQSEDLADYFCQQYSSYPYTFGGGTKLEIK
3.9

Try 105F1E10 (mouse antibody purified from hybridoma) (antibody, V domains shown, also called mAb009-105F1E10) VH: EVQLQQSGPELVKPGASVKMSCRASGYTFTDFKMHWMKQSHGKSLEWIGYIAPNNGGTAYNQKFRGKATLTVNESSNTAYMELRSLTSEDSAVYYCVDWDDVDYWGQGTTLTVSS VL: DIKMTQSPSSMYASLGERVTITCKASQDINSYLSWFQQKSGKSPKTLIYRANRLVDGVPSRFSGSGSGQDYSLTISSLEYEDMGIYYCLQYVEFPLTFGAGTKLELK next.
4.1

Try this binder next: 409B11E12 (mouse antibody purified from hybridoma) (antibody, V domains shown, also called mAb104-409B11E12) VH: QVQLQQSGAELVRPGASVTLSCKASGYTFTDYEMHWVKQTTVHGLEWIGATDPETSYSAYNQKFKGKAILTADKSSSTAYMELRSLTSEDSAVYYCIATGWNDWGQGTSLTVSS VL: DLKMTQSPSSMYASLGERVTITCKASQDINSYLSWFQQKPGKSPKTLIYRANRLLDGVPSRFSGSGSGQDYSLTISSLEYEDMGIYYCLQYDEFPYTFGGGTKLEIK
3.3

Try 405B8H3 (mouse antibody purified from hybridoma) (antibody, V domains shown, also called mAb103-405B8H3; 405B81-13) VH: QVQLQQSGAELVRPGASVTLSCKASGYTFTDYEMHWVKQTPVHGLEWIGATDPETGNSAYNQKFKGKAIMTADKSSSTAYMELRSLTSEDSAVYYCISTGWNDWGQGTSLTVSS VL: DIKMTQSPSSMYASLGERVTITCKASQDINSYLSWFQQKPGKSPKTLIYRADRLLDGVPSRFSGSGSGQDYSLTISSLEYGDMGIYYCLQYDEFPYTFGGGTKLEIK next.
4.2
